Where do these numbers come from? They come from PubChem BioAssay (Tox21).

- METHOD_DESCRIPTION: qHTS assay for identifying genotoxic compounds that show differential cytotoxicity against isogenic chicken DT40 cell lines with known DNA damage response pathways - Rev3 mutant cell line (AID 743014); further: nearly all actives have a fitted effect of over 55% in size
- MEASUREMENT_CONTEXT: chicken DT40 Rev3-/- viability, CellTiter-Glo, 40 h; series mostly up to 68.4 µM
Results filed as inconclusive are left out. Calls of active or inactive are those of the source. The call rests on the fitted dose curve; in most records, active means well fitted cell-killing curve with a large enough effect in the repeat runs; inconclusive means weak or mixed curves, or effect the other way; inactive means no such curve, though single readings can be large or run the other way.
Outcomes: YES = active, NO = inactive

# COMPOUND, CLASS_LABEL
records = [
    ("CC(C)(C)C(=O)O", "NO"),
    ("CC(COc1ccc(C(C)(C)C)cc1)OS(=O)OCCCl (stereo unspecified)", "NO"),
    ("CCCCCCCCCCCC(=O)[O][Sn]([CH2]CCC)([CH2]CCC)[O]C(=O)CCCCCCCCCCC", "NO"),
    ("CCOC(=O)C(C)Oc1ccc(Oc2nc3ccc(Cl)cc3o2)cc1 (stereo unspecified)", "YES"),
    ("CCCCN(CCCC)C(=S)SSC(=S)N(CCCC)CCCC", "NO"),
    ("Cc1ccc(Nc2nccc(N(C)c3ccc4c(C)n(C)nc4c3)n2)cc1S(N)(=O)=O", "YES"),
    ("CCc1nn(CCCN2CCN(c3cccc(Cl)c3)CC2)c(=O)n1CCOc1ccccc1", "YES"),
    ("N#C[C@@H]1C[C@@H]2C[C@@H]2N1C(=O)[C@@H](N)C12CC3CC(CC(O)(C3)C1)C2", "NO"),
    ("CCCCCCCCCCOS(=O)(=O)O", "NO"),
    ("CC(C)c1nnc2ccc(-c3ocnc3-c3cc(F)ccc3F)cn12", "YES"),
    ("CNC(=S)NC", "YES"),
    ("CSc1ccc(Oc2ccc(S(N)(=O)=O)cc2CN(C)C)cc1C", "YES"),
    ("COc1cc2c(N3CCN(C(=O)Nc4ccc(OC(C)C)cc4)CC3)ncnc2cc1OCCCN1CCCCC1", "YES"),
    ("O=C(CCCCCCCCC#CI)Oc1ccccc1", "NO"),
    ("Cc1c(C(=O)NN2CCCCC2)nn(-c2ccc(Cl)cc2Cl)c1-c1ccc(Cl)cc1", "YES"),
    ("CCCCCCCCCOC(C)=O", "NO"),
    ("NC(=O)Nc1ccc(Cl)c(Cl)c1", "YES"),
    ("O=C(Nc1ccccc1)Nc1ccccc1", "YES"),
    ("CNCCCC1c2ccccc2C=Cc2ccccc21", "YES"),
    ("C[Si]1(C)O[Si](C)(C)O[Si](C)(C)O1", "NO"),
    ("CCCC1C(CC)=CC(CC)=CN1c1ccccc1 (stereo unspecified)", "YES"),
    ("c1ccc(COCc2ccccc2)cc1", "NO"),
    ("CCOC(=O)CC(=O)C(=O)OCC", "NO"),
    ("CCC(Cc1ccccc1)(C(=O)c1ccc(N2CCOCC2)cc1)N(C)C (stereo unspecified)", "YES"),
    ("O=C(O)C(Cc1cc(I)c(O)c(I)c1)c1ccccc1 (stereo unspecified)", "NO"),
    ("CCOC(=O)c1ccccc1C", "YES"),
    ("O=Cc1c(Cl)cccc1Cl", "NO"),
    ("CCc1c2c(nc3ccc(OC(=O)N4CCC(N5CCCCC5)CC4)cc13)-c1cc3c(c(=O)n1C2)COC(=O)[C@]3(O)CC", "YES"),
    ("C=CC(=C)CCCC(C)(C)OC(C)=O", "NO"),
    ("O=C(c1ccc(O)cc1)c1ccc(Cl)cc1", "YES"),
    ("CCc1cccc(N(C)C(N)=Nc2cccc3ccccc23)c1", "YES"),
    ("O=C(C(=O)c1ccccc1)c1ccccc1", "NO"),
    ("C=CC(C)(O)CCCC(C)CCCC(C)CCCC(C)C (stereo unspecified)", "NO"),
    ("COCc1c(C(C)C)nc(C(C)C)c(/C=C/[C@@H](O)C[C@@H](O)CC(=O)O)c1-c1ccc(F)cc1", "YES"),
    ("Nc1ccc(Cl)cc1[N+](=O)[O-]", "NO"),
    ("CN1CCN(c2c(F)cc3c(=O)c(C(=O)O)cn4c3c2OCN4C)CC1", "NO"),
    ("CCCCC(=O)O[C@]1(C(=O)CO)CC[C@H]2[C@@H]3CCC4=CC(=O)CC[C@]4(C)[C@H]3[C@@H](O)C[C@@]21C", "NO"),
    ("Fc1ccccc1[C@@H](F)COC1CCC(Nc2ncnc3[nH]ncc23)CC1 (stereo partly specified)", "YES"),
    ("CCCOC(=O)c1ccc(C(=O)OCCC)nc1", "NO"),
    ("CC1=NN(c2ccc(C(=O)O)cc2)C(=O)C1", "NO"),
    ("O=C(O)c1cccnc1C(=O)O", "NO"),
    ("CCN(Cc1cccc(S(=O)(=O)O)c1)c1ccc(C(=C2C=CC(=[N+](CC)Cc3cccc(S(=O)(=O)[O-])c3)C=C2)c2ccccc2)cc1", "NO"),
    ("CC1CC(O)CC(C)(C)C1 (stereo unspecified)", "NO"),
    ("CC(=O)CC(c1ccc([N+](=O)[O-])cc1)c1c(O)c2ccccc2oc1=O (stereo unspecified)", "NO"),
    ("CO[C@H]1O[C@H](CO)[C@@H](O)[C@H](O)[C@H]1O", "NO"),
    ("CO/N=C1\\CN(c2nc3c(cc2F)c(=O)c(C(=O)O)cn3C2CC2)CC1CN (stereo unspecified)", "NO"),
]
